For each of the compounds below, state its remaining at 1 h.
test: Metabolic stability in human liver S9 fraction assessed as compound remaining measured after 1 hr; type: ADME, subcellular; details: read-out: Stability
Answers are plain numbers, in %.

CC(C)(C)Nc1ncc(C(N)=O)c(N[C@@H]2CCC[C@H](O)C2)n1	93
NC(=O)c1cnc(NC23CC(C2)C3)nc1N[C@@H]1CCC[C@H](O)C1	96
CO[C@H]1CCC[C@@H](Nc2nc(N[C@H]3CC[C@H](OC)CC3)ncc2C(N)=O)C1	91
NC(=O)c1cnc(NC2CCCCC2)nc1N[C@@H]1CCC[C@H](O)C1	77

Note: attention shifts to another entry.
response.value for CO[C@H]1CC[C@H](Nc2ncc(C(N)=O)c(N[C@@H]3CCCC(F)(F)C3)n2)CC1 (mixture of isomers) (field: remaining at 1 h) = 61

Taken from ChEMBL document CHEMBL4840378.
